For each of the compounds below, state its MIC.
Test system: E. coli ATCC25922
assay-notes: Bacterial growth minimal inhibitory concentration (CLSI broth microdilution)
Assay type: cell-based
test-settings: Escherichia coli, ATCC25922; quinolone-sensitive strain; cation-adjusted Mueller-Hinton Broth
All answers are understood in µg/mL, so give the number only.

// Input: CN1CCN(C(=O)OCC2(C#CC#Cc3cc4n(c3)C(=O)N(CC[C@](C)(C(=O)NO)S(C)(=O)=O)C4)CC2)CC1 [Example 23] . Output its MIC only.
4

Identify measured MIC corresponding to [2H]CN1CC(C#CC#Cc2cc3n(c2)C(=O)N(CC[C@](C)(C(=O)NO)S(C)(=O)=O)C3)C1 [Example 60]
0.5

Please report MIC for the following compound: C[C@@](CCN1Cc2cc(C#CC#CC3(F)CCNC3)cn2C1=O)(C(=O)NO)S(C)(=O)=O (mixture of isomers) [Example 78]
1

Return the recorded MIC value; entry: C[C@@](CCN1Cc2cc(C#CC#CC3CN(C4CCCC4)C3)cn2C1=O)(C(=O)NO)S(C)(=O)=O [Example 73]
0.5
